Consider the following IC50 data for human mPGES-1 (Homo sapiens), collected from several reports.
// return numeric value only (unit: µM, not printed)

[ask] // fetch human mPGES-1 (Homo sapiens) IC50 for `COC(C)(C)CCOc1cc(C(=O)NS(=O)(=O)c2ccccc2S(N)(=O)=O)ccc1-c1cc2ccccc2o1`
[reply] 0.023

[ask] // fetch human mPGES-1 (Homo sapiens) IC50 for `CS(=O)(=O)NCc1ccc(Cl)c(-c2nc(O)nc(-c3ccc(C(F)(F)F)cc3)n2)c1`
[reply] 0.0016

[ask] // fetch human mPGES-1 (Homo sapiens) IC50 for `N#Cc1cccc(-c2cccc(S(=O)(=O)Nc3ccccc3S(N)(=O)=O)c2)c1`
[reply] 1.7

[ask] // fetch human mPGES-1 (Homo sapiens) IC50 for `NS(=O)(=O)c1ccccc1S(=O)(=O)NC(=O)c1ccc2oc(-c3ccccc3)cc2c1`
[reply] 0.02

[ask] // fetch human mPGES-1 (Homo sapiens) IC50 for `NS(=O)(=O)c1ccccc1NS(=O)(=O)CCc1ccc(Cl)cc1OCCc1cccc2c1CC(=O)N2`
[reply] 0.0119

[ask] // fetch human mPGES-1 (Homo sapiens) IC50 for `Cc1cc(C)cc(-c2nc(O)nc(-c3cc(CNC(=O)C(C)(C)C(F)(F)F)ccc3Cl)n2)c1`
[reply] 0.0007

[ask] // fetch human mPGES-1 (Homo sapiens) IC50 for `CN(Cc1ccc(Cl)c(-c2nc(O)nc(-c3ccc(C#CC4CCCCC4)cc3)n2)c1)C(=O)C(C)(C)C(F)(F)F`
[reply] 0.088

[ask] // fetch human mPGES-1 (Homo sapiens) IC50 for `Cc1c(CNC(=O)C(C)(C)C(F)(F)F)ccc(Cl)c1-c1nc(O)nc(-c2ccc(OCC(C)C)cc2)n1`
[reply] 0.0012

[ask] // fetch human mPGES-1 (Homo sapiens) IC50 for `NS(=O)(=O)c1ccccc1NS(=O)(=O)/C=C/c1ccccc1C(F)(F)F`
[reply] 4.6

[ask] // fetch human mPGES-1 (Homo sapiens) IC50 for `Cc1c(Cl)cccc1NC(=O)c1cc(NC(=O)c2ccccc2C(F)(F)F)cc2[nH]c([C@@H]3CCCN3C(=O)OC(C)(C)C)nc12`
[reply] 0.01

[ask] // fetch human mPGES-1 (Homo sapiens) IC50 for `CCCCc1ccc(-c2nc(O)nc(-c3cc(CNC(=O)[C@@](C)(OC)C(F)(F)F)ccc3Cl)n2)cc1`
[reply] 0.0024

[ask] // fetch human mPGES-1 (Homo sapiens) IC50 for `Cc1ccc(-c2nc(O)nc(-c3c(C)cccc3C)n2)cc1`
[reply] 2.7

[ask] // fetch human mPGES-1 (Homo sapiens) IC50 for `NS(=O)(=O)c1ccccc1NS(=O)(=O)c1cccc(-c2ccoc2)c1`
[reply] 4.5

[ask] // fetch human mPGES-1 (Homo sapiens) IC50 for `NS(=O)(=O)c1ccccc1NS(=O)(=O)c1cccc(-c2cc3ccccc3o2)c1`
[reply] 3.8

[ask] // fetch human mPGES-1 (Homo sapiens) IC50 for `NS(=O)(=O)c1ccccc1NS(=O)(=O)CCc1ccc(-c2cc3ccccc3o2)cc1`
[reply] 0.13

[ask] // fetch human mPGES-1 (Homo sapiens) IC50 for `Cc1cc(-c2nc(O)nc(-c3cc(CNC(=O)C4(C(F)(F)F)CC4)ccc3Cl)n2)ccc1C(F)(F)F`
[reply] 0.0008
